Here the recorded apparent KD of MS2 coat protein is given for each entry.
Tested on: MS2 coat protein
Experiment Summary: apparent KD of MS2 coat protein, switch OFF state (with FMN for OFF switches, without FMN for ON switches); designed switch direction (-1 OFF switch, 1 ON switch): 1; higher = weaker reporter binding
Assay Context: FMN input: 0 or 200 uM; Eterna round: R93 (includes R88 designs)
The number alone won't do; follow it with the unit.

Worked examples follow.
GAGAGACAUGAGGAUCACCCAUGUAGGAUUAUGGGAGGAUAUACAAAGACGAGAGUCAGAGUAGAAGGCCUAGGAG [salish99-ss1-139] | 75.6 nM
AAAGAAUGAAGGCAGGAUAUGUGAAAAAAAACAUGAGGAUCACCCAUGUAAUAAAUGGGUACAAAACAGAAGGGCCAAGAAAUAA [SS 2 Tesla 2] | 398 nM
GGUACAGCUAGUUAGGAUAUCAGGUGUAAGACAUGAGGAUCACCCAUGUCCUAAGAACAGGUAACUGAGAAGGAACAGGGCGUCC [JR_SS002_Sub415] | 90 nM
AAGAAACAUGAGGAUCACCCAUGUAAGAUAAACACAGGAUAUGCGAAAGAAACAAAAGAAGCAGAAGGGUGAAGAA [Mat - Same State 1 - Tesla mod - D146] | 29.4 nM
AAAGAAUGAAGGCAGGAUAUGUGAAAAAAAACAUGAGGAUCACCCAUGUAAUAGAUGGUGAAAAGGCAGAAGGGCCAAGAAACAA [SS 2 Tesla 6] | 199 nM
CAGCGCUGUCGAGAGGAUAUGCGGUGAAGGACAUGAGGAUCACCCAUGUAAGCGAUAGUAUUACGGUAGAAGGCUCUACAGCUGC [Isdianbia] | 114 nM
AUAUAUAUAAGGUAGGAUAUCCAAAAGUAAACAUGAGGAUCACCCAUGUAAAGAAAGAAACAAUGGGAGAAGGACCAUAUAUAUA [77%, More Tesla, 3] | 24 nM
AAUAAGACUAGCAAGGAUAUCGAAAACGAGACAUGAGGAUCACCCAUGUAACAAGUAAAAGUAAACGAGAAGGUGCAGGGUGAAA [JR_SS002_Sub301] | 80 nM

Query: Give its apparent KD of MS2 coat protein value. Item: UUACAGUGCGGGUAGGAUAUGUAGGGUGGUACAUGAGGAUCACCCAUGUAUCCACCCUUCGACCGGCAGAAGGGCCUGUCACUAC [Atarzale]
Response: 12.8 nM

Query: Give its apparent KD of MS2 coat protein value. Item: AAAAAACAUGAGGAUCACCCAUGUCCUCGGACGUGAGGAUAUGUACAGACUUCGGUCUGUACAGAAGGCAUGAAAA [SS1 - 1059]
Response: 201 nM

###

System: MS2 coat protein
Experiment Summary: apparent KD of MS2 coat protein; designed switch direction (-1 OFF switch, 1 ON switch): -1; higher = weaker reporter binding
Assay Context: input ligand: none
Decide using apparent KD of MS2 coat protein: a value greater than or equal to 20 nM is true (1), a smaller one is false (0).

Query: hey, is apparent KD of MS2 coat protein for this one >= 20 nM? UUCACAUGGACAUGAGAUCACAUGAGGAUCACCCAUGUGAAUAACAAGCUUUUUGCUCGUCUUAUGUCCAAUAAUAU [Stov1/14-C3] (Eterna round: R97, puzzle: Sensor, turn-off variant 1)
Response: false (0)

Query: hey, is apparent KD of MS2 coat protein for this one >= 20 nM? GGAUUUCGAGGAUAUACACGCAAAUAGGUGUAUCCUUUAGCACAUGAGGAUCACCCAUGUAGAAGGCGGGUACU [Eternabot (L1) Solution 19] (Eterna round: R97, puzzle: Exclusion 2)
Response: true (1)

Query: hey, is apparent KD of MS2 coat protein for this one >= 20 nM? UAUUAAACAAGCAGGUCCCACAUGAGGAUCACCCAUGUGCUCGUCUUAUAAGGUACUGUGAUGAAAGUUACGGUACC [Elimod 17 - Jieux - Sensor, turn-off variant 1] (Eterna round: R97, puzzle: Sensor, turn-off variant 1)
Response: true (1)

Query: hey, is apparent KD of MS2 coat protein for this one >= 20 nM? CGUCAGUCAGGAUAUACUUACGUAGACAUGAGGAUCACCCAUGUGACGUGGGACUGGUGAGUAGAAGGGACGAACA [EX5 #76] (Eterna round: R97, puzzle: Exclusion 5)
Response: false (0)

###

Test system: MS2 coat protein
Experiment Summary: apparent KD of MS2 coat protein; higher = weaker reporter binding
Assay Context: Eterna round: R107; input ligand: theophylline 20 uM
Decide using apparent KD of MS2 coat protein: a value greater than or equal to 0.03 µM is 1.0, a smaller one is 0.0.

# count of solved cases: 10
AGGACGGUCGGAAGGAGCGGUACAUGAGGAUCACCCAUGUACUUAUGGGCAUCCGUAGAGUGCCAGGUAGGUCGCCGAUUGCGGG [XArg-B11] | 0.0
ACAUGACAACAUGAGGAUCACCCAUGUCAUCGAGGACCGGUACGGCCGCCACUCGGUCAAUAUGAUACUUGUCAUGAACAUGAGG [Exclusion Tryptophan A 2] | 0.0
UCAUUGAGAGUCAUCCAGCGUUAAUGGGAUACCAGAGUUCUUUUACUCCCUUGGCAGCCCGGAACAUGAGGAUCACCCAUGUCUG [theeternabot_exclusion_MS2_Theo_A_39] | 1.0
UGCAUGAGGAUCGCCCGUGUCGAGCCGGUGCGAGGACCGGUACGGCCGCCACUCGAGACAUGAGGAUCACCCAUGUUGUGCGUGA [Exclusion Tryptophan A GF24] | 1.0
CAAUAGAUAGCGGCCGCCACUUACUCAUGAGGUAACAACAUGAGGAUCACCCAUGUUUGAGGAUCAAGGACCGGGCUAUUUAUUG [AstrosSSTryB#7] | 1.0
CUGCCAUGCAGAGAUACCAGUGCGCUCAGCACAUGAGGAUCACCCAUGUUGGCUGCCGAUCACCCUUGGCAGCUCUGCAUGGCAG [#04 Same State - Theophylline B] | 0.0
ACAUGAGGAUCACCCAUGUAAUAGCGAGAAGGAGCGCGUAAGGACGCAGGUAGGUCGCUCGUGGUCCGGCCGCAAGGCCGGACCA [#1 Same State - Arginine A Attempt #10 (HarryS)] | 0.0
UACAUGAGGAUCACCCAUGUGUAGAGGGAUACCAGUGACAGUAAGCGCCCUUGGCAGCCCGUGAACAAUGGGUGAGCAAAAUAGU [#17 Exclusion-TheophyllineA] | 1.0
GUUGGUUUGGGAAGGAGCGGGUAUGUUGUCUACUUGAUCCUAACAUGAGGAUCACCCAUGUCCCAGGUAGGUCGCCCAGGCUUUG [12.aD] | 1.0
UGGUACUAGGCGGCCGCCACUGGGUGAUACAUGAGGAUCACCCAUGUUUAAUGCCGAGAGGCAACUAGGACCGGGCCUAGUACAU | 1.0

Query: hey, is apparent KD of MS2 coat protein for this one >= 0.03 µM? GUCCUAAGGUCGGCCGCCACUGUAGAGUGUGAGCCAUCACAUGAGGAUCACCCAUGUUGUUGCUAUAGGACCGGGAUUGUAGGAC [#22 Exclusion Tryptophan B]
Response: 0.0

Query: hey, is apparent KD of MS2 coat protein for this one >= 0.03 µM? AUAAGGUAUCUGCUAUCCUCAUGAGCAGAUACCAGCUAGGAAACUAGCCCUUGGCAGCUGCAACAUGAGGAUCACCCAUGUAAUA [(T)'-(M)'-(T1)-(T2)-(M1)-(M2)_Design1]
Response: 1.0

###

System: K4 kissing-loop RNA reporter;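 further: bound reporter read as fluorescence of individual clusters on recovered sequencing chips by microscopy, with normalized cluster intensities fitted with a binding model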
Experiment Summary: apparent KD of K4 kissing-loop reporter; higher = weaker reporter binding
Assay Context: Eterna round: R107; input ligand: theophylline 20 uM
Decide using apparent KD of K4 kissing-loop reporter: a value greater than or equal to 300 nM is satisfied, a smaller one is not satisfied.

# count of solved cases: 3
CGCGGCCCGCCGGAUACCAGUGACCCGCGGGAAACCGCGGGCCCAGAGUGAUGUUCGGGACACCCUUGGCAGCCGCCUGGGCGUG [#2 Same State - Theophylline B Attempt #1 (HarryS)] | satisfied
UGACUGGACUGAAGGAGCGCUAAACUCCUAGUGAUGUUAGGGAAACAAGACAAAGUCUUGAGGCAGGUAGGUCGCAGUCUAGUCU [FiskerMod 3 - Jieux - Same State - Arginine B] | not satisfied
GGAUAGGAUAGAGGAUAUGGUAGUGAUGUUACCAAACUGGUUAAACAUGUCAGAAAACUGGCAUGACCAGAAGGCUGUCCUAUCG [FmnBX 27 U9] | not satisfied

Query: hey, is apparent KD of K4 kissing-loop reporter for this one >= 300 nM? AGUGUGCAAAAGCACACUCAGUACAAGGACAAGGAUAUCUACUAAUAGAGAAGGUGUCCUUUCCUUAGUGAUGUUAAGGAGCUGA [Omei KL FMN A SS D v2]
Response: satisfied

Query: hey, is apparent KD of K4 kissing-loop reporter for this one >= 300 nM? UGGAGUUGACGAAAAGUCAACUCCUGAGAUACCAGUGACGAAAGUCACCCUUGGCAGCUCACUGCCAGUGAUGUUGGAAAAUAAA [#OpenEnded 1]
Response: not satisfied

Taken from the supplement of paper PMC9170038.
